experiment: Metabolic stability in human liver microsomes assessed as compound remaining at 1 uM after 60 mins
Recorded remaining at 1 h, 1 µM values for a group of compounds are listed next.
Return type: number; implicit unit %.

> print(dat)
                                   molecule  observed.result
1  COc1cc(/C=C/C(=O)NCCn2c(C)cc3ccccc32)cc(OC)c1OC              0.1
2  Cc1cc(/C=C/C(=O)NCCn2c(C)cc3ccccc32)cc(C)c1F             20.9
3  Cc1cc2ccccc2n1CCNC(=O)/C=C/c1ccc(OCCO)c(OCCO)c1             16.2

Incoming: Tell me its remaining at 1 h, 1 µM given "Cc1[nH]c2ccccc2c1CCNC(=O)/C=C/c1ccc(OCCO)c(OCCO)c1" as the entry.
Outgoing: 58.5

Incoming: Retrieve remaining at 1 h, 1 µM measured for "Cc1cc(/C=C/C(=O)NCCc2c(C)[nH]c3ccccc23)cc(C)c1F" and print it.
Outgoing: 0.4

Incoming: Hello, please tell me recorded remaining at 1 h, 1 µM for this one: "COc1ccc(/C=C/C(=O)NCCc2c(C)[nH]c3ccccc23)cc1OC"
Outgoing: 12.4

Incoming: Write down remaining at 1 h, 1 µM measured for item "COc1cc(/C=C/C(=O)NCCc2c(C)[nH]c3ccccc23)cc(OC)c1OC"
Outgoing: 0.8

----------
remaining at 1 h, 10 µM values for the molecules below.
assay: Metabolic stability in human liver microsomes assessed as compound remaining at 10 uM after 60 mins
Express the result in % but write the number alone.

> print(dat)
                                   molecule  observed.result
1  COc1cc(/C=C/C(=O)NCCn2c(C)cc3ccccc32)cc(OC)c1OC             10.6
2  Cc1[nH]c2ccccc2c1CCNC(=O)/C=C/c1ccc(OCCO)c(OCCO)c1             70.4
3  COc1ccc(/C=C/C(=O)NCCc2c(C)[nH]c3ccccc23)cc1OC             18.6
4  COc1cc(/C=C/C(=O)NCCc2c(C)[nH]c3ccccc23)cc(OC)c1OC              5.8
5  Cc1cc(/C=C/C(=O)NCCc2c(C)[nH]c3ccccc23)cc(C)c1F             21.4

// next item, remaining at 1 h, 10 µM requested
Incoming: Answer with the recorded remaining at 1 h, 10 µM for the molecule listed here: "Cc1cc(/C=C/C(=O)NCCn2c(C)cc3ccccc32)cc(C)c1F"
Outgoing: 24

----------
assay: Metabolic stability in mouse liver microsomes assessed as compound remaining at 10 uM after 60 mins
Item-by-item account of remaining at 1 h, 10 µM
The response must be a number in % with no trailing unit.

Recorded remaining at 1 h, 10 µM, per entry:
> print(dat)
                                   molecule  observed.result
1  Cc1cc2ccccc2n1CCNC(=O)/C=C/c1ccc(OCCO)c(OCCO)c1              8.7
2  Cc1cc(/C=C/C(=O)NCCc2c(C)[nH]c3ccccc23)cc(C)c1F             51.7
3  Cc1cc(/C=C/C(=O)NCCn2c(C)cc3ccccc32)cc(C)c1F               13
4  COc1cc(/C=C/C(=O)NCCn2c(C)cc3ccccc32)cc(OC)c1OC              4.8
5  COc1ccc(/C=C/C(=O)NCCc2c(C)[nH]c3ccccc23)cc1OC              0.1
6  Cc1[nH]c2ccccc2c1CCNC(=O)/C=C/c1ccc(OCCO)c(OCCO)c1             19.3

In the following, a different molecule is considered.
Incoming: State its remaining at 1 h, 10 µM: "COc1cc(/C=C/C(=O)NCCc2c(C)[nH]c3ccccc23)cc(OC)c1OC"
Outgoing: 0.2
